# Experiment: Determination of distribution coefficient LogD7.4 (1-octanol/PBS)
# Type: physicochemical
# Conditions Used: 1-octanol/PBS pH 7.4; ± SD; read-out: Log D7.4

{"Compound": "COC(=O)c1ccc(N2N=C(C)CC2=O)cc1", "logD": 1}
{"Compound": "CC1=NN(c2ccc(C(=O)O)cc2)C(=O)C1", "logD": -0.74}
{"Compound": "CC1=NN(c2ccccc2)C(=O)C1 [Compound 1, edaravone, reference compound]", "logD": 1.1}
{"Compound": "COC(=O)c1ccc(-n2c(=O)cc(C)n2C(=O)OC(C)(C)C)cc1", "logD": 2.3}
